These measurements were taken from the supplement of paper PMC6379048.

- experimental-system: CELF2 (UniProt O95319)
- Sequence: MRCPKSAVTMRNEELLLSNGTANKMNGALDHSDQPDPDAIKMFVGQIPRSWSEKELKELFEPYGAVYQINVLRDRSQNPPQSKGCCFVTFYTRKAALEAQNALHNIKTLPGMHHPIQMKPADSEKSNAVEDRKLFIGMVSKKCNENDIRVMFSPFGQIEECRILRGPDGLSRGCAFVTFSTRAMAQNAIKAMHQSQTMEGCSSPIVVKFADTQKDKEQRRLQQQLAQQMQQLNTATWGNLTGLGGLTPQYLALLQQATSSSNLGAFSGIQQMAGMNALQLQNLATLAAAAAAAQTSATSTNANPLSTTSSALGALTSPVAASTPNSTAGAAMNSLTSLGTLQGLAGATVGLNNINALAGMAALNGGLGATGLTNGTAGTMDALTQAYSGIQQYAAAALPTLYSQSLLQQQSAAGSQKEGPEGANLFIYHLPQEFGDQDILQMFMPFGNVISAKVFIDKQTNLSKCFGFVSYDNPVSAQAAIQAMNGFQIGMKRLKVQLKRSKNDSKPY
- assay-overview: EC50 of free RNA motif oligo competing protein binding to immobilised probe
readout-label: pEC50
By convention, pEC50 is the negative base-10 log of a molar concentration.

Record excerpt, results attached:
residue-string	pEC50
CUGUCCU	5.57
AAUAAA	5.90

Now, please, on to the next sequence.
pEC50 of UAUUUAU , assay on CELF2 (UniProt O95319), is 6.29
